A set of compounds tested on aXa (Homo sapiens, UniProt P00742), with measured IC50:
Residues, ends and D or L forms follow the SMILES beside them.
MEASURED ATTRIBUTE: IC50 (µM)

N=C(N)NCCC[C@H](NC(=O)[C@@H]1CCCN1C(=O)[C@H](N)Cc1ccccc1)C(=O)NCC(=O)N[C@@H](Cc1ccccc1)C(=O)N[C@@H](CCCCN)C(=O)O [H-D-Phe-Pro-Arg-Gly-Phe-Lys-OH] (HELM PEPTIDE1{[dF].P.R.G.F.K}$$$$V2.0) = 1600

1. C[C@H](NC(=O)[C@H](CCCNC(=N)N)NC(=O)[C@@H]1CCCN1C(=O)[C@H](N)Cc1ccccc1)C(=O)N[C@@H](Cc1ccccc1)C(=O)N[C@@H](CCCCN)C(=O)O [H-D-Phe-Pro-Arg-Ala-Phe-Lys-OH] (HELM PEPTIDE1{[dF].P.R.A.F.K}$$$$V2.0)
2. N=C(N)NCCC[C@H](NC(=O)[C@@H]1CCCN1C(=O)[C@H](N)Cc1ccccc1)C(=O)NCC(=O)O [H-D-Phe-Pro-Arg-Gly-OH, reference compound] (HELM PEPTIDE1{[dF].P.R.G}$$$$V2.0)
3. N=C(N)NCCC[C@H](NC(=O)[C@@H]1CCCN1C(=O)[C@H](N)Cc1ccccc1)C(=O)NCC(=O)N[C@@H](Cc1ccccc1)C(=O)O [H-D-Phe-Pro-Arg-Gly-Phe-OH] (HELM PEPTIDE1{[dF].P.R.G.F}$$$$V2.0)
4. N=C(N)NCCC[C@H](NC(=O)[C@@H]1CCCN1C(=O)[C@H](N)Cc1ccccc1)C(=O)CCC(=O)N[C@@H](Cc1ccccc1)C(=O)O [H-D-Phe-Pro-Arg-psi[COCH2 ]-Gly-Phe-OH]
# rank by IC50, ascending (min first) Reply with the item labels sorted in the order that was asked for. 3, 4, 1, 2
(3: 1300 µM, 4: 2100 µM, 1: 3100 µM, 2: 4800 µM)

====

MEASURED TARGET: Factor IIa (Homo sapiens, UniProt P00734)
Construct: Ki [M]-Factor IIa
METHOD DESCRIPTION: Ki against Factor IIa
Assay type: biochemical
MEASUREMENT CONDITIONS: called minimum inhibitory concentrations
Residues, ends and D or L forms follow the SMILES beside them.
MEASURED ATTRIBUTE: Ki (µM)

Here are 3 compounds together with their reported answers.
NCCCC[C@H](NC(=O)[C@H](Cc1ccccc1)NC(=O)CCC(=O)[C@H](CCCN=C(N)N)NC(=O)[C@@H]1CCCN1C(=O)[C@H](N)Cc1ccccc1)C(=O)O (HELM PEPTIDE1{[dF].P.[N=C(N)NCCC[C@H](N[*:1])C(=O)CCC(=O)[*:2]].F.K}$$$$V2.0) = 0.028
N=C(N)NCCC[C@H](NC(=O)[C@@H]1CCCN1C(=O)[C@H](N)Cc1ccccc1)C(=O)NCC(=O)O [H-D-Phe-Pro-Arg-Gly-OH, reference compound] (HELM PEPTIDE1{[dF].P.R.G}$$$$V2.0) = 70
N=C(N)NCCC[C@H](NC(=O)[C@@H]1CCCN1C(=O)[C@H](N)Cc1ccccc1)C(=O)NCC(=O)N[C@@H](Cc1ccccc1)C(=O)O [H-D-Phe-Pro-Arg-Gly-Phe-OH] (HELM PEPTIDE1{[dF].P.R.G.F}$$$$V2.0) = 7.6

1. N=C(N)NCCC[C@H](NC(=O)[C@@H]1CCCN1C(=O)[C@H](N)Cc1ccccc1)C(=O)NCC(=O)N[C@@H](Cc1ccccc1)C(=O)N[C@@H](CCCCN)C(=O)O [H-D-Phe-Pro-Arg-Gly-Phe-Lys-OH] (HELM PEPTIDE1{[dF].P.R.G.F.K}$$$$V2.0)
2. N=C(N)NCCC[C@H](NC(=O)[C@@H]1CCCN1C(=O)[C@H](N)Cc1ccccc1)C(=O)CCC(=O)N[C@@H](Cc1ccccc1)C(=O)O [H-D-Phe-Pro-Arg-psi[COCH2 ]-Gly-Phe-OH]
3. N=C(N)NCCC[C@H](NC(=O)[C@@H]1CCCN1C(=O)[C@H](N)Cc1ccccc1)C(=O)CCC(=O)O [H-D-Phe-Pro-Arg-psi[COCH2 ]-Gly-OH]
Let's sort these by Ki, smallest first. Go ahead? Please reply with the labels ordered as requested. Many thanks. 2, 1, 3
(2: 0.48 µM, 1: 3.4 µM, 3: 26 µM)
